B1: wild-type PAP257–273 [human] / itself (parent)
chain: RLQGGVLVNEILNHMKR

Variants of: B1
Assay: ThT assay (amyloid fibril formation, self-assembly)
Settings: with itself; peptide 3 mg/ml, agitated at 1400 rpm at 37 °C for 48 h; parent: 5.5e+03; read off a plot
measured property: response

Example results:
chain 1 L2A :: 7800
chain 1 R17A :: 8300

(P) chain 1 M15A
(Q) chain 1 V8A
(R) chain 1 L12A
(S) chain 1 Q3A
input: With regard to response, arrange the entries in ascending order, please. // ordering of labels required in reply
output: Q, P, S, R
